meta.source: the NIST ThermoML archive (doi:10.1021/je101232g)

Listing of recorded mass density by entry.
Details: 313.15 K; 2000 kPa; Liquid
Hi! Could you send only the number? It should be in kg/m3, unit omitted.

See these solved cases before continuing.
Compound | Value Units | mass density
CCCCCCCCCCCCCC[P+](CCCCCC)(CCCCCC)CCCCCC.CS(=O)(=O)[O-] [trihexyltetradecylphosphonium methanesulfonate] | kg/m3 | 920.7
CCCCCCCCCCCCCC[P+](CCCCCC)(CCCCCC)CCCCCC.O=S(=O)([N-]S(=O)(=O)C(F)(F)F)C(F)(F)F | kg/m3 | 1056.7
CCCCCCCCCCCCCC[P+](CCCCCC)(CCCCCC)CCCCCC.N#C[N-]C#N [tetradecyl(trihexyl)phosphonium dicyanamide] | kg/m3 | 891.2
CCCCCCCCCCCCCC[P+](CCCCCC)(CCCCCC)CCCCCC.[Cl-] [trihexyl(tetradecyl)phosphonium chloride] | kg/m3 | 881.7

// next item, mass density requested
Data request, read-out mass density, for CCCCCCCCCCCCCC[P+](CCCCCC)(CCCCCC)CCCCCC.[Br-] [tetradecyltrihexylphosphonium bromide]
945.3
